Entry source: ChEMBL document CHEMBL4732034

# key: entry, value: GI50
System: HT-29
experimentDescription: Cytotoxicity against human HT29 cells assessed as growth inhibition measured after 72 hrs by SRB assay
Assay type: functional

Solved entries (count: 2):
{"compound": "N#C/C(=C\\c1ccc(OCC(O)CNc2ccc(Br)cc2)cc1)c1ccc(Cl)c(Cl)c1 (racemic)", "GI50": "6 µM"}
{"compound": "N#C/C(=C\\c1ccc(OCC(O)CN2CCN(c3ccc(C#N)cc3)CC2)cc1)c1ccc(Cl)c(Cl)c1 (racemic)", "GI50": "50 µM"}

Task: # GI50 lookup, item COc1ccc(NCC(O)COc2ccc(/C=C(\C#N)c3ccc(Cl)c(Cl)c3)cc2)cc1 (racemic)
Output: 3.7 µM

Task: # GI50 lookup, item CC1CCN(CC(O)COc2ccc(/C=C(\C#N)c3ccc(Cl)c(Cl)c3)cc2)CC1 (racemic)
Output: 1.7 µM

Task: # GI50 lookup, item CC1CCCN(CC(O)COc2ccc(/C=C(\C#N)c3ccc(Cl)c(Cl)c3)cc2)C1 (racemic)
Output: 2.4 µM
